Cited source: the supplement of paper PMC10567573

B1: TRIM15 (parent)
chain: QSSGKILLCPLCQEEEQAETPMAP

- Variants of: B1
- assay.summary: protein stability index of a GFP-peptide fusion (GPS, HEK-293T) (PSI 1-6); higher = more stable;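 further: lentivirally expressed fusions sorted by FACS into six bins by GFP to DsRed ratio, PSI derived from sequencing read proportions per bin multiplied by bin number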
- condition: c terminus: a fixed tail appended
measured.parameter: protein stability index

>>> recorded_result("QSSGKILLCPLCQEEEQAFTPMAP [E19F]")
2.06
>>> recorded_result("QSSTKILLCPLCQEEEQAETPMAP [G4T]")
3.66
>>> recorded_result("QSSGKILLCPLCQEEEQAETPMAS [P24S]")
3.53
>>> recorded_result("QSSGKIWLCPLCQEEEQAETPMAP [L7W]")
3.29
>>> recorded_result("QSSGKILLCPLCQEEETAETPMAP [Q17T]")
3.63
>>> recorded_result("QSSGKILLIPLCQEEEQAETPMAP [C9I]")
3.84
>>> recorded_result("QSSGKILLCPLHQEEEQAETPMAP [C12H]")
4.66
>>> recorded_result("QSSGKILLCPKCQEEEQAETPMAP [L11K]")
4.54
>>> recorded_result("QSSGKILLCPLCQEEEEAETPMAP [Q17E]")
2.95
>>> recorded_result("QSSGKILLCPLCQEEEIAETPMAP [Q17I]")
2.88
>>> recorded_result("QSSGKILLCPLCQEEPQAETPMAP [E16P]")
3.28
